- test_description: nonspecific potentiation of DAMGO calcium response – cell-based, HEK293 mu-opioid receptor line, counter-screen for TRPC4 allosteric potentiator project, confirmation (AID 449724);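 note: HEK293 cells carrying mu-opioid receptor only with no TRPC4 channel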
- cond: HEK293 mu-opioid receptor cells, Fluo-4 calcium flux, at 10 µM, compound added before EC20 DAMGO stimulus
The source made the active and inactive calls.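 Rule for the calls: active = calcium signal rise more than 3 SD above the low-dose agonist control mean, in both duplicate plates and the primary screen; inactive = the rest.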
reported_endpoint: activation

Consider the following illustrative entries.
(Q) Fill in: activation of CCOc1ccc(CN2CCCC(CNC(=O)c3ccc(F)cc3)C2)cc1CO (stereo not given) is ___
(A) inactive

(Q) Look up activation: "Cn1c(-c2ccc(F)cc2)cnc1NCc1ccc(F)cc1"
(A) inactive

(Q) So what does the record say about activation for "COc1cc(Br)cc(C2C3=C(CCCC3=O)N(c3ccc(F)cc3)C3=C2C(=O)CCC3)c1O" ?
(A) inactive

(Q) Please give the measured activation for this compound: "CCN1CCN(c2ccc(S(=O)(=O)N3CCCCC3)cc2NC(=O)c2cc3ccccc3o2)CC1"
(A) inactive

With those in mind, consider the next compound.
(Q) Tell me the measured activation of "CCCN1CCN(C(=O)Cn2c(=O)oc3cc(S(=O)(=O)NCc4ccccc4)ccc32)CC1" , please.
(A) inactive

// data source = PubChem BioAssay
